- Test system: PA-1;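 further: IC50 for suppression of PA-1 cell proliferation, determined with a cell viability read-out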
- Assay Overview: cells
- Type: functional, cell-based
- Run Parameters: Homo sapiens
- Description: SANGER: Inhibition of human PA-1 cell growth in a cell viability assay.
Observation Type: IC50 (nM)

1. CC(=O)c1c(C)c2cnc(Nc3ccc(N4CCNCC4)cn3)nc2n(C2CCCC2)c1=O ... 510
2. CC[C@]1(O)C[C@@H]2CN(CCc3c([nH]c4ccccc34)[C@@](C(=O)OC)(c3cc4c(cc3OC)N(C)[C@H]3[C@@](O)(C(=O)OC)[C@H](OC(C)=O)[C@]5(CC)C=CCN6CC[C@]43[C@@H]65)C2)C1 ... 8.09
3. O=c1cc(N2CCOCC2)oc2c(-c3cccc4c3sc3ccccc34)cccc12 ... 1580
4. C[C@]12O[C@H](C[C@]1(O)CO)n1c3ccccc3c3c4c(c5c6ccccc6n2c5c31)CNC4=O ... 140
5. NC(=O)c1ncn([C@@H]2O[C@H](COP(=O)(O)O)[C@@H](O)[C@H]2O)c1N ... 856000
6. CO[C@@]12[C@H](COC(N)=O)C3=C(C(=O)C(C)=C(N)C3=O)N1C[C@@H]1N[C@@H]12 ... 23.5

* * *

- Test system: EB2;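 further: growth inhibition of EB2 cells, read out with a cell viability assay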
- Assay Overview: cells
- Format: functional, cell-based
- Run Parameters: Homo sapiens
- Description: SANGER: Inhibition of human EB2 cell growth in a cell viability assay.
This section presents compounds with their documented IC50 values.
Observation Type: IC50

1. C/C(O)=C(\C#N)C(=O)Nc1cc(Br)ccc1Br ... > 16 µM
2. Cc1ccc(NC(=O)c2cccc(C(C)(C)C#N)c2)cc1Nc1ccc2ncn(C)c(=O)c2c1 ... > 4 µM
3. COc1cc(C)c(Sc2cnc(NC(=O)c3ccc(CNC(C)C(C)(C)C)cc3)s2)cc1C(=O)N1CCN(C(C)=O)CC1 (stereo not drawn) ... > 10.2 µM

* * *

- Tested on: no-10
- Assay Overview: cells
- Assay type: functional, cell-based
- Run Parameters: Homo sapiens
- Description: SANGER: Inhibition of human no-10 cell growth in a cell viability assay.
Recorded IC50 for the following compounds
Observation Type: IC50

1) COc1cc(C)c(Sc2cnc(NC(=O)c3ccc(CNC(C)C(C)(C)C)cc3)s2)cc1C(=O)N1CCN(C(C)=O)CC1 (stereo not drawn) ... > 10200 nM
2) C/C(O)=C(\C#N)C(=O)Nc1cc(Br)ccc1Br ... > 16000 nM
3) CCn1c(-c2nonc2N)nc2cnc(Oc3cccc(NC(=O)c4ccc(OCCN5CCOCC5)cc4)c3)cc21 [GSK-269962A] ... 668 nM
4) O=c1cc(N2CCOCC2)oc2c(-c3cccc4c3sc3ccccc34)cccc12 ... > 2000 nM
5) Cc1ccc(NC(=O)c2cccc(C(C)(C)C#N)c2)cc1Nc1ccc2ncn(C)c(=O)c2c1 ... > 4000 nM
6) Cc1[nH]c(/C=C2\C(=O)Nc3ccc(S(=O)(=O)Cc4c(Cl)cccc4Cl)cc32)c(C)c1C(=O)N1CCC[C@@H]1CN1CCCC1 [PHA-665752] ... > 2000 nM
7) Cn1cc(/C=C2\C(=O)Nc3cccnc32)c2ccccc21 ... > 2000 nM
8) CCNC(=O)c1noc(-c2cc(C(C)C)c(O)cc2O)c1-c1ccc(CN2CCOCC2)cc1 [LUMINESPIB] ... 30.2 nM

* * *

- Test system: HCC38;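 further: cell viability assay on the human HCC38 cell line, with IC50 marking the concentration that inhibits cell growth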
- Assay Overview: cells
- Type: functional, cell-based
- Run Parameters: Homo sapiens
- Description: SANGER: Inhibition of human HCC38 cell growth in a cell viability assay.
Below, each entry is listed with its recorded IC50.
Observation Type: IC50 (nM)

1. CC[C@@]1(O)C(=O)OCc2c1cc1n(c2=O)Cc2cc3ccccc3nc2-1 ... 12.9
2. C/C=C(/C)C(=O)O[C@H]1C(C)=C2[C@H]([C@@H]1OC(=O)CCCCCCC)[C@@](C)(OC(C)=O)C[C@H](OC(=O)CCC)[C@@]1(O)[C@H]2OC(=O)[C@@]1(C)O ... 1.37
3. N#C/C(=C1/Nc2ccccc2S1)c1ccnc(NCCc2cccnc2)n1 ... 5300
